- Test target: Protein c-Fos/Transcription factor Jun (Homo sapiens, UniProt P05412+P01100)
- Sequence (P05412 whole entry): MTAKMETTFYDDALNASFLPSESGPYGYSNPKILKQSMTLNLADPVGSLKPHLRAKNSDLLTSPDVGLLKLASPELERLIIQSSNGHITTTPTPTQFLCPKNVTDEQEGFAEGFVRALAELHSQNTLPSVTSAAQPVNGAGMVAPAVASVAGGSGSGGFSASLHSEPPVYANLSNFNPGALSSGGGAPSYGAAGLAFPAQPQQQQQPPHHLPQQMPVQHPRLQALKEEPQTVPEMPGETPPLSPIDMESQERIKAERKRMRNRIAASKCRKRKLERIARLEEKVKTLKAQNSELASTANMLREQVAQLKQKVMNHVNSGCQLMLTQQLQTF
- Sequence (P01100 whole entry): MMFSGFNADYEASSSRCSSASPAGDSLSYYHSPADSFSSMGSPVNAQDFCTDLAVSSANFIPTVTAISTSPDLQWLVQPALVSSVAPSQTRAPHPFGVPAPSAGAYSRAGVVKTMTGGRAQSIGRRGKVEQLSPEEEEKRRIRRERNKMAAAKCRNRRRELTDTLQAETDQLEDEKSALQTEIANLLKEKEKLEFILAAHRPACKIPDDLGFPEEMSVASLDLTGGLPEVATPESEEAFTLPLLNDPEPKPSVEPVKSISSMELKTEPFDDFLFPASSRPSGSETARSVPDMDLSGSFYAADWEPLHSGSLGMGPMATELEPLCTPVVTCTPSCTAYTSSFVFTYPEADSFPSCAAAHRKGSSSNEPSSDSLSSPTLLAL
- Experimental details: Inhibition of AP-1 (activator protein-1) mediated transcriptional activation in Jurkat T-cells
Readout: log10(IC50) (log10 of the value in nM)
In our notation, the value equals log10 of IC50 in nM.

# Sample smiles, Test target, log10(IC50)
measured = [
    ("CCOC(=O)c1cnc(Oc2ccccc2)nc1NN1C(=O)C=C(C)C1=O", "Protein c-Fos/Transcription factor Jun (Homo sapiens, UniProt P05412+P01100)", 4.18),
]

Record CCOC(=O)c1cnc(C(C)(C)C)nc1NN1C(=O)C=C(C)C1=O , field log10(IC50): 3.00

// log10(IC50) lookup, compound = CCOC(=O)c1cnc(-c2ccccc2)nc1NN1C(=O)C=C(C)C1=O , result: 2.00

Lab note: measured log10(IC50) of CC1=CC(=O)N(Nc2nc(-c3cccs3)ncc2C2=NCCO2)C1=O was 2.30

What the record says about CCOC(=O)c1cnc(-c2csc(C)n2)nc1NN1C(=O)C=C(C)C1=O : log10(IC50) is 3.90

Given item CCOC(=O)c1cnc(C(F)(F)F)nc1NN1C(=O)C=CC1=O , the value recorded as its log10(IC50) is 4.00

Recorded log10(IC50) (compound CCOC(=O)c1cnc(-c2cccc(Br)c2)nc1NN1C(=O)C=C(C)C1=O ): 2.85

Kindly note the recorded log10(IC50) for CCOC(=O)c1cnc(-c2cc(Cl)nc(Cl)c2)nc1NN1C(=O)C=C(C)C1=O , which is 3.30

// log10(IC50) lookup, compound = CCOC(=O)c1cnc(-n2nc(C)cc2C)nc1NN1C(=O)C=C(C)C1=O , result: 4.00

Just so you know, measured log10(IC50) for CCOC(=O)c1cnc(-c2ccsc2)nc1NN1C(=O)C=C(C)C1=O came out at 2.00

// sample CCOC(=O)c1cnc(C(F)(F)F)nc1NN1C(=O)C=C(c2ccccc2)C1=O , its log10(IC50) was 4.30

For this compound ( CCOC(=O)c1cnc(-c2ccc(Cl)s2)nc1NN1C(=O)C=C(C)C1=O ), measured log10(IC50) is 2.48

log10(IC50) for CCOC(=O)c1cnc(Cc2ccccc2)nc1NN1C(=O)C=C(C)C1=O is 3.85

// recorded log10(IC50) for CCOC(=O)c1cnc(-c2cccs2)nc1N(C)N1C(=O)C=C(C)C1=O : 3.00

Input CCOC(=O)c1cnc(-c2cccs2)nc1NN1C(=O)C=C(C)C1=O . Output log10(IC50): 1.30

In plain terms, CCOC(=O)c1cnc(-c2ccncc2)nc1NN1C(=O)C=C(C)C1=O has a documented log10(IC50) of 3.78

The recorded log10(IC50) for CCOC(=O)c1cnc(-c2ccc(F)cc2)nc1N(C)N1C(=O)C=C(C)C1=O is 3.48

The compound listed as CCOC(=O)c1cnc(C(F)(F)F)nc1NN1C(=O)C=C(C)C1=O has a reported log10(IC50) of 3.00

The value of log10(IC50) measured for the compound CCOC(=O)c1cnc(C(F)(F)F)nc1NN1C(=O)C(C)=C(C)C1=O turned out to be 4.00

response.value for CCOC(=O)c1cnc(-c2cc3ccccc3s2)nc1NN1C(=O)C=C(C)C1=O (field: log10(IC50)) = 3.60

The compound CCOC(=O)c1cnc(-c2cc(Cl)cc(Cl)c2)nc1NN1C(=O)C=C(C)C1=O showed log10(IC50) equal to 2.48
